test: log P by HPLC (EEC Directive 79/831 Annex V.A8); format: physicochemical; conditions: HPLC; pH 2.7, given in the preparation examples; read-out: logP (pH2.7)
Use Satisfied when the recorded chromatographic logP is no lower than 4; use Not satisfied when it is lower.

Form field: chromatographic logP at least 4? Entry: `CCOC(=O)c1cccc(C2CCN(C(=O)Cn3nc(C(F)F)cc3C(F)F)CC2)n1` Not satisfied

Form field: chromatographic logP at least 4? Entry: `CC(C)(C)OC(=O)N1CCC(O)(c2cccc(Br)n2)CC1` Not satisfied

Form field: chromatographic logP at least 4? Entry: `O=C(OC1CCCCC1)c1cccc(C2CCN(C(=O)Cn3nc(C(F)F)cc3C(F)F)CC2)n1` Not satisfied

Form field: chromatographic logP at least 4? Entry: `O=C(O)c1cccc(N2CCN(C(=O)Cn3nc(C(F)F)cc3C(F)F)CC2)n1` Not satisfied

Form field: chromatographic logP at least 4? Entry: `CCOC(=O)c1cccc(C2CCN(C(=O)OC(C)(C)C)CC2)n1` Not satisfied

Form field: chromatographic logP at least 4? Entry: `O=C(O)c1cccc(C2CCN(C(=O)Cn3nc(C(F)F)cc3C(F)F)CC2)n1` Not satisfied

Form field: chromatographic logP at least 4? Entry: `CC(C)(C)OC(=O)N1CCC(c2cccc(C(=O)O)n2)CC1` Not satisfied

Form field: chromatographic logP at least 4? Entry: `CCOC(=O)c1cccc(N2CCN(C(=O)Cn3nc(C(F)F)cc3C(F)F)CC2)n1` Not satisfied

Form field: chromatographic logP at least 4? Entry: CN(C(=O)c1cccc(C2CCN(C(=O)OC(C)(C)C)CC2)n1)C1CCCc2ccccc21 (stereo not drawn) Satisfied

Form field: chromatographic logP at least 4? Entry: `CCOC(=O)c1cccc(C2CCNCC2)n1` Not satisfied

Form field: chromatographic logP at least 4? Entry: `CCOC(=O)c1cccc(N2CCN(C(=O)OC(C)(C)C)CC2)n1` Not satisfied

Form field: chromatographic logP at least 4? Entry: Cc1cc(C(F)(F)F)nn1CC(=O)N1CCC(c2cccc(C(=O)N(C)C3CCCc4ccccc43)n2)CC1 (stereo not drawn) Not satisfied

Form field: chromatographic logP at least 4? Entry: `CC(C)(C)OC(=O)N1CC=C(c2cccc(Br)n2)CC1` Satisfied

* * *

assay: log P by HPLC (EEC Directive 79/831 Annex V.A8); format: physicochemical; conditions: [b] LC-MS, acidic range, pH 2.7, 0.1% aqueous formic acid and acetonitrile
recorded metric: log P
Reply briefly: the number, and no unit.

Entry `Cc1cc(C(F)(F)F)nn1CC(=O)N1CCC(c2cccc(C(=O)Nc3ccc4ccccc4c3)n2)CC1` needs its log P filled in; supply it. 4.09

Entry `Cc1cc(C(F)(F)F)nn1CC(=O)N1CCN(c2cccc(C(=O)SCc3c(F)cccc3F)n2)CC1` needs its log P filled in; supply it. 4.11

Entry `Cc1cc(C(F)(F)F)nn1CC(=O)N1CCN(c2cccc(C(=O)OCc3c(F)cccc3F)n2)CC1` needs its log P filled in; supply it. 3.54

Entry `Cc1cc(C(F)(F)F)nn1CC(=O)N1CCN(c2cccc(C(=O)OCc3ccccc3Cl)n2)CC1` needs its log P filled in; supply it. 3.89

Entry CC(NC(=O)c1cccc(C2CCN(C(=O)Cn3nc(C(F)F)cc3C(F)F)CC2)n1)c1ccccc1Cl (centres unmarked) needs its log P filled in; supply it. 3.53

Entry `Cc1cc(C(F)(F)F)nn1CC(=O)N1CCN(c2cccc(C(=O)OCc3c(F)cc(F)cc3F)n2)CC1` needs its log P filled in; supply it. 3.68

Entry `Cc1cc(C(F)(F)F)nn1CC(=O)N1CCN(c2cccc(C(=O)Oc3ccc4ccccc4c3)n2)CC1` needs its log P filled in; supply it. 4.01

Entry `Cc1cc(C(F)(F)F)nn1CC(=O)N1CCN(c2cccc(C(=O)OC3CCCCC3)n2)CC1` needs its log P filled in; supply it. 3.96

Entry `CN(Cc1ccc(Cl)cc1Cl)C(=O)c1cccc(C2CCN(C(=O)Cn3nc(C(F)F)cc3C(F)F)CC2)n1` needs its log P filled in; supply it. 3.66

* * *

assay: log P by HPLC (EEC Directive 79/831 Annex V.A8); type: physicochemical; settings: [c] LC-MS, neutral range, pH 7.8, 0.001 molar aqueous ammonium hydrogencarbonate and acetonitrile
recorded metric: log P

Entry Cc1cc(C(F)(F)F)nn1CC(=O)N1CCC(c2cccc(C(=O)NCc3ccc(F)cc3F)n2)CC1 [Example 22] needs its log P filled in; supply it. 3.36^[b]; 3.36^[c]

Entry Cc1cc(C(F)(F)F)nn1CC(=O)N1CCC(c2cccc(C(=O)N3CCOc4ccccc43)n2)CC1 [Example 15] needs its log P filled in; supply it. 3.04^[b]; 3.04^[c]

Entry Cc1cc(C(F)(F)F)nn1CC(=O)N1CCC(c2cccc(C(=O)NC3CCc4ccccc43)n2)CC1 (racemic) [Example 19] needs its log P filled in; supply it. 3.56^[b]; 3.56^[c]

* * *

Would you kindly list log P for each of these compounds?
assay: log P by HPLC (EEC Directive 79/831 Annex V.A8); format: physicochemical; details: [a] HPLC, acidic range, pH 2.3, 0.1% aqueous phosphoric acid and acetonitrile
Reply briefly: the number, and no unit.

Entry O=C(OC1C=CCCC1)c1cccc(N2CCN(C(=O)Cn3nc(C(F)F)cc3C(F)F)CC2)n1 (centres unmarked) [Example 142] needs its log P filled in; supply it. 3.56

Entry O=C(OCc1ccccc1F)c1cccc(N2CCN(C(=O)Cn3nc(C(F)F)cc3C(F)F)CC2)n1 [Example 137] needs its log P filled in; supply it. 3.47

Entry O=C(SCc1ccccc1Cl)c1cccc(C2CCN(C(=O)Cn3nc(C(F)F)cc3C(F)F)CC2)n1 [Example 126] needs its log P filled in; supply it. 4.44

Entry O=C(SCc1c(F)cccc1F)c1cccc(C2CCN(C(=O)Cn3nc(C(F)F)cc3C(F)F)CC2)n1 [Example 113] needs its log P filled in; supply it. 4.12

Entry O=C(Sc1cccs1)c1cccc(N2CCN(C(=O)Cn3nc(C(F)F)cc3C(F)F)CC2)n1 [Example 124] needs its log P filled in; supply it. 3.73

Entry Cc1ccccc1CSC(=O)c1cccc(C2CCN(C(=O)Cn3nc(C(F)F)cc3C(F)F)CC2)n1 [Example 133] needs its log P filled in; supply it. 4.39

Entry O=C(SCc1c(F)cccc1F)c1cccc(N2CCN(C(=O)Cn3nc(C(F)F)cc3C(F)F)CC2)n1 [Example 125] needs its log P filled in; supply it. 4.11

Entry O=C(SC1CCCCC1)c1cccc(C2CCN(C(=O)Cn3nc(C(F)F)cc3C(F)F)CC2)n1 [Example 112] needs its log P filled in; supply it. 4.63

Entry O=C(Sc1cccc2ccccc12)c1cccc(N2CCN(C(=O)Cn3nc(C(F)F)cc3C(F)F)CC2)n1 [Example 120] needs its log P filled in; supply it. 4.25

Entry O=C(Sc1cccs1)c1cccc(C2CCN(C(=O)Cn3nc(C(F)F)cc3C(F)F)CC2)n1 [Example 123] needs its log P filled in; supply it. 3.76

Entry O=C(SCc1ccccc1Cl)c1cccc(N2CCN(C(=O)Cn3nc(C(F)F)cc3C(F)F)CC2)n1 [Example 127] needs its log P filled in; supply it. 4.42

Entry O=C(SCc1ccc(F)cc1)c1cccc(C2CCN(C(=O)Cn3nc(C(F)F)cc3C(F)F)CC2)n1 [Example 128] needs its log P filled in; supply it. 4.1

Entry O=C(NCc1ccccc1Cl)c1cccc(N2CCN(C(=O)Cn3nc(C(F)F)cc3C(F)F)CC2)n1 [Example 146] needs its log P filled in; supply it. 3.24

* * *

Would you kindly list log P for each of these compounds?
test: log P by HPLC (EEC Directive 79/831 Annex V.A8); type: physicochemical; settings: [c] LC-MS, neutral range, pH 7.8, 0.001 molar aqueous ammonium hydrogencarbonate and acetonitrile
Reply briefly: the number, and no unit.

Entry `Cc1cc(C(F)(F)F)nn1CC(=O)N1CCC(c2cccc(C(=O)Sc3ccc4ccccc4c3)n2)CC1` needs its log P filled in; supply it. 4.61

Entry `O=C(SCc1ccc(F)cc1)c1cccc(C2CCN(C(=O)Cn3nc(C(F)F)cc3C(F)F)CC2)n1` needs its log P filled in; supply it. 4.15

Entry `Cc1cc(C(F)(F)F)nn1CC(=O)N1CCN(c2cccc(C(=O)OCc3ccccc3Cl)n2)CC1` needs its log P filled in; supply it. 3.9

Entry `CCCCCCCNC(=O)c1cccc(C2CCN(C(=O)Cn3nc(C(F)F)cc3C(F)F)CC2)n1` needs its log P filled in; supply it. 4.05

Entry `Cc1cc(C(F)(F)F)nn1CC(=O)N1CCC(c2cccc(C(=O)NCc3c(F)cccc3F)n2)CC1` needs its log P filled in; supply it. 3.26

Entry CC(NC(=O)c1cccc(C2CCN(C(=O)Cn3nc(C(F)F)cc3C(F)F)CC2)n1)c1ccccc1Cl (stereo not shown) needs its log P filled in; supply it. 3.61

Entry `O=C(NCc1ccc(Cl)cc1Cl)c1cccc(N2CCN(C(=O)Cn3nc(C(F)F)cc3C(F)F)CC2)n1` needs its log P filled in; supply it. 3.7

Entry O=C(OC1CCCCC1)c1cccc(N2CCN(C(=O)Cn3nc(C(F)F)cc3C(F)F)CC2)n1 [Example 119] needs its log P filled in; supply it. 4.65

Entry `Cc1cc(C(F)(F)F)nn1CC(=O)N1CCN(c2cccc(C(=O)OCc3ccccc3F)n2)CC1` needs its log P filled in; supply it. 3.6

Entry `Cc1cc(C(F)(F)F)nn1CC(=O)N1CCC(c2cccc(C(=O)Nc3ccc4ccccc4c3)n2)CC1` needs its log P filled in; supply it. 4.11

Entry `Cc1cc(C(F)(F)F)nn1CC(=O)N1CCC(c2cccc(C(=O)N(C)Cc3ccccc3Br)n2)CC1` needs its log P filled in; supply it. 3.49

This collection of values is drawn from patent US8604040B2.
